Entry source: patent US8569301B2

Tested on: ECHCG
Test: Example B1 herbicidal action post-emergence, ECHCG
Format: in vivo
Details: Rate 1000 g/ha; sprayed after 8 days cultivation; evaluated after 13 days; scores from 10 to 0 (10=total damage to plant; 0=no damage to plant)
Label satisfied when assessed score, application post-emergence, ECHCG is at or above 5; anything below gets not satisfied.

O=S1(=O)Cc2nccnc2C(O)=C1c1c(F)ccc(F)c1Cl
not satisfied
O=S1(=O)C(c2c(Cl)cccc2C(F)(F)F)=C(O)c2nccnc2C12CC2
satisfied
Cc1cc(C)c(C2=C(O)c3nccnc3C(C)(C)S2(=O)=O)c(C)c1
satisfied
O=S1(=O)C(c2c(F)ccc(Br)c2Cl)=C(O)c2nccnc2C1CC(F)F (stereo not drawn)
not satisfied
CCOCOC1=C(c2cc(Cl)ccc2C(F)(F)F)S(=O)(=O)Cc2nccnc21
not satisfied
O=S1(=O)Cc2nccnc2C(O)=C1c1c(Cl)cccc1Cl
satisfied
O=S1(=O)Cc2nccnc2C(O)=C1c1c(F)cccc1C(F)(F)F
not satisfied

###

Test system: AMARE
Test: Example B1 herbicidal action post-emergence, AMARE
Type: in vivo
Details: Rate 1000 g/ha; sprayed after 8 days cultivation; evaluated after 13 days; scores from 10 to 0 (10=total damage to plant; 0=no damage to plant)
Measured assessed score, application post-emergence, AMARE accompanies every entry in the list below.
endpoint: assessed score, application post-emergence, AMARE

O=S1(=O)Cc2nccnc2C(O)=C1c1cc(Cl)cc(C(F)(F)F)c1
0
O=S1(=O)C(c2c(Cl)cccc2C(F)(F)F)=C(O)c2nccnc2C12CC2
9
Cc1cc(C)c(C2=C(O)c3nccnc3C(CC(F)F)S2(=O)=O)c(C)c1 (stereo not drawn)
10
O=S1(=O)Cc2nccnc2C(O)=C1c1c(F)cccc1C(F)(F)F
4
O=S1(=O)C(c2cc(Cl)ccc2C(F)(F)F)=C(O)c2nccnc2C12CC2
6
O=S1(=O)Cc2nccnc2C(O)=C1c1c(F)ccc(Br)c1Cl
9
O=S1(=O)Cc2nccnc2C(O)=C1c1c(F)ccc(Cl)c1Cl
10
C#CCC1c2nccnc2C(O)=C(c2c(Cl)cccc2C(F)(F)F)S1(=O)=O (racemic) [Compound E2]
10
CC1c2nccnc2C(O)=C(c2c(F)ccc(Br)c2Cl)S1(=O)=O (stereo not drawn)
8

###

System: AMARE
Test: Example B1 herbicidal action post-emergence, AMARE
Type: in vivo
Conditions: Rate 1000 g/ha; sprayed after 8 days cultivation; evaluated after 13 days; scores from 10 to 0 (10=total damage to plant; 0=no damage to plant)
Entries annotated with measured assessed score, application post-emergence, AMARE
endpoint: assessed score, application post-emergence, AMARE

CCOCOC1=C(c2cc(Cl)ccc2C(F)(F)F)S(=O)(=O)Cc2nccnc21 [Compound X1]
6
Cc1cc(C)c(C2=C(O)c3nccnc3C(C)S2(=O)=O)c(C)c1 (stereo not drawn) [Compound E19]
3
O=S1(=O)Cc2nccnc2C(O)=C1c1ccccc1OC(F)F [Compound C9]
6
O=S1(=O)Cc2nccnc2C(O)=C1c1cccc(F)c1C(F)(F)F [Compound C10]
6
O=S1(=O)Cc2nccnc2C(O)=C1c1cc(C(F)(F)F)ccc1C(F)(F)F [Compound C16]
9
CCC1c2nccnc2C(O)=C(c2ccc(Br)cc2C(F)(F)F)S1(=O)=O (stereo not drawn) [Compound E14]
9
CCC1c2nccnc2C(O)=C(c2c(Cl)cccc2C(F)(F)F)S1(=O)=O (stereo not drawn) [Compound E1]
9
O=S1(=O)C(c2c(Cl)cccc2C(F)(F)F)=C(O)c2nccnc2C1CC(F)F (racemic) [Compound E4]
9
O=S1(=O)Cc2nccnc2C(O)=C1c1c(Cl)ccc(Cl)c1Cl [Compound C18]
7

###

System: crop and representative weed species
Experiment: Example B2 herbicidal action post-emergence (Table B2)
Format: in vivo
Settings: AMARE = Amaranthus retroflexus; application post-emergence; rate 500 g/ha; evaluated after 15 days; score 10 to 0
Procedure: Seeds of crop and representative weed species were sown in standard soil in pots. After cultivation for 14 days under controlled conditions in a glasshouse (at 22/16° C., day/night; 16 hours light; 65% humidity), the plants were sprayed. The spray solution was prepared by dissolving the technical active ingredient in acetone containing 10.56 wt % Emulsogen EL, 42.22 wt % N-methylpyrrolidone and 2.22 wt % DPG-monoethyl ether to give a 5% stock solution. […]
Items are presented alongside their recorded herbicidal damage score AMARE (10=total damage to plant; 0=no damage to plant).
endpoint: herbicidal damage score AMARE (10=total damage to plant; 0=no damage to plant)

CC1(C)c2nccnc2C(O)=C(c2cc(F)ccc2Cl)S1(=O)=O
7
C#CCC1c2nccnc2C(O)=C(c2c(F)ccc(Br)c2Cl)S1(=O)=O (stereo not drawn)
8
C=CCC1c2nccnc2C(O)=C(c2c(F)ccc(Br)c2Cl)S1(=O)=O (stereo not drawn)
7
CCCC1c2nccnc2C(O)=C(c2c(F)ccc(Br)c2Cl)S1(=O)=O (stereo not drawn)
7
C#CCC1(C)c2nccnc2C(O)=C(c2c(Cl)cccc2C(F)(F)F)S1(=O)=O (stereo not drawn)
8
O=S1(=O)C(c2c(F)ccc(Br)c2Cl)=C(O)c2nccnc2C12CCCC2
5

###

System: AMARE
Experiment: Example B1 herbicidal action post-emergence, AMARE
Assay type: in vivo
Details: Rate 1000 g/ha; sprayed after 8 days cultivation; evaluated after 13 days; scores from 10 to 0 (10=total damage to plant; 0=no damage to plant)
Mark No for assessed score, application post-emergence, AMARE values under 8, and Yes for everything at or above.

O=S1(=O)Cc2nccnc2C(O)=C1c1c(Cl)cccc1Cl [Compound C19]
No
O=S1(=O)Cc2nccnc2C(O)=C1c1cc(C(F)(F)F)ccc1Cl [Compound C2]
No
CC1(C)c2nccnc2C(O)=C(c2c(F)ccc(Br)c2Cl)S1(=O)=O [Compound F2]
Yes
CC1(C)c2nccnc2C(O)=C(c2c(Cl)cccc2C(F)(F)F)S1(=O)=O [Compound F9]
Yes

###

Tested on: AMARE
Assay: Example B1 herbicidal action post-emergence, AMARE
Assay type: in vivo
Conditions: Rate 1000 g/ha; sprayed after 8 days cultivation; evaluated after 13 days; scores from 10 to 0 (10=total damage to plant; 0=no damage to plant)
Would you please tag the item rule met when its assessed score, application post-emergence, AMARE is 7 or above, and rule not met when it is below?

COc1ccc(Cl)c(C2=C(O)c3nccnc3CS2(=O)=O)c1F [Compound C5]
rule not met
O=S1(=O)C(c2c(F)ccc(Br)c2Cl)=C(O)c2nccnc2C1Cc1ccccc1 (stereo not shown) [Compound E23]
rule not met
C#CCC1c2nccnc2C(O)=C(c2c(C)cc(C)cc2C)S1(=O)=O (stereo not shown) [Compound E16]
rule not met
CC1(C)c2nccnc2C(O)=C(c2cc(Cl)ccc2C(F)(F)F)S1(=O)=O [Compound F5]
rule met
O=S1(=O)C(c2c(F)ccc(Br)c2Cl)=C(O)c2nccnc2C1CC(F)F (stereo not shown) [Compound E9]
rule met
O=S1(=O)Cc2nccnc2C(O)=C1c1ccc(Cl)cc1C(F)(F)F [Compound C17]
rule met

###

Test system: ECHCG
Test: Example B1 herbicidal action post-emergence, ECHCG
Assay type: in vivo
Conditions: Rate 1000 g/ha; sprayed after 8 days cultivation; evaluated after 13 days; scores from 10 to 0 (10=total damage to plant; 0=no damage to plant)
Label rule, in plain words: assessed score, application post-emergence, ECHCG of 5 and up is yes (1), under 5 is no (0).

O=S1(=O)C(c2c(F)ccc(Br)c2Cl)=C(O)c2nccnc2C1Cc1ccccc1 (stereo not drawn) [Compound E23]
yes (1)
CC#CCC1c2nccnc2C(O)=C(c2c(F)ccc(Br)c2Cl)S1(=O)=O (stereo not drawn) [Compound E21]
yes (1)
CCc1cc(-c2ccc(Cl)cc2Cl)ccc1C1=C(O)c2nccnc2CS1(=O)=O [Compound C24]
yes (1)
O=S1(=O)Cc2nccnc2C(O)=C1c1cc(C(F)(F)F)ccc1Cl [Compound C2]
no (0)
O=S1(=O)Cc2nccnc2C(O)=C1c1c(F)ccc(Br)c1Cl [Compound C21]
yes (1)
O=S1(=O)C(c2cc(Cl)ccc2C(F)(F)F)=C(O)c2nccnc2C12CC2 [Compound F11]
no (0)
C#CCC1c2nccnc2C(O)=C(c2c(C)cc(C)cc2C)S1(=O)=O (stereo not drawn) [Compound E16]
no (0)

###

System: ECHCG
Assay: Example B1 herbicidal action post-emergence, ECHCG
Type: in vivo
Conditions: Rate 1000 g/ha; sprayed after 8 days cultivation; evaluated after 13 days; scores from 10 to 0 (10=total damage to plant; 0=no damage to plant)
endpoint: assessed score, application post-emergence, ECHCG

Cc1cc(C)c(C2=C(O)c3nccnc3CS2(=O)=O)c(C)c1 [Compound C20]
4
O=S1(=O)Cc2nccnc2C(O)=C1c1ccc(F)cc1Cl [Compound C8]
3
CC1c2nccnc2C(O)=C(c2c(F)ccc(Br)c2Cl)S1(=O)=O (centres unmarked) [Compound E11]
8
O=S1(=O)C(c2c(Cl)cccc2C(F)(F)F)=C(O)c2nccnc2C1CC(F)F (racemic) [Compound E4]
6
O=S1(=O)Cc2nccnc2C(O)=C1c1c(Cl)cccc1C(F)(F)F [Compound C13]
8
